system tested: T1, UNK ZnF1-3 (human, UniProt Q9C0B0 31-174)
T1 sequence: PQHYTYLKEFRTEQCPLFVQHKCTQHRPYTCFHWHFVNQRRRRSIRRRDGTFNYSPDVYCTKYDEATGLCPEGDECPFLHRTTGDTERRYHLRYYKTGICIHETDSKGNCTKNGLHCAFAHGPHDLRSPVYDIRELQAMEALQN
procedure summary: nsRBNS (natural sequence RNA bind-n-seq); RBNS binding buffer (assumed for nsRBNS): 25 mM Tris pH 7.5, 150 mM KCl, 3 mM MgCl2, 0.01% Triton X-100, 500 ug/ml BSA, 20 U/ml SUPERase-In, 4 C; UNK is unkempt and MSI1 is Musashi-1; names of the RNAs are library labels; protein concentration not given here; high values mean tight binding
In all, about 24,000 sequences were measured (“enrichment r”: median about 0.99, highest 2% from about 3.7 on). Not all results are given here.
Overview of recorded binding signal for various binders
Report the figure in enrichment R without appending any unit label.

{"binder": "chrX:98862621:98862622:+_ENSMUSG00000034160_ENSMUST00000044475|mus_hu|mus_mus_mus_hu_False|58_88 (ssRNA) RNA: GGGAGUUCUACAGUCCGACGAUCCUGCAUCUCCUUUAGAGUGUUUCCCAUAUUGGAGUAGGCAUCAGCAAAGGUAGGACUAAUUCGAAUAGCCUCCUUAUAAUGCAUCAGAGCUUCCUGCAGUUUUCCCUGCUGCUGCAGUACCAACAGAGGAUUGAGCAUCA", "binding signal (enrichment R)": 0.89}
{"binder": "chr1:171751117:171751118:+_ENSG00000010165_ENST00000361735|hu_hu|motif|central (ssRNA) RNA: GGGAGUUCUACAGUCCGACGAUCCUUUUAGGUAAGAGGUUCAUGUUCCUACUGCCGAAGCUGCGUUUUCAAGACUCCCCGGUUCCCUGUGAGAUACCAUUUGAGGAGCUUGCCCACCACACGCAGGCUCCGGGACACUGCAGUCAACAGAGGAUUGAGCAUCA", "binding signal (enrichment R)": 0.55}

Suppose we examine the binder chr15:23003119:23003120:+_ENSG00000068793_ENST00000560848|hu_mus|FALSE|FALSE (ssRNA) RNA: GGGAGUUCUACAGUCCGACGAUCUUAUAAAGUUAAGCUUUCAGAUCAAAAGUAGGUUCAGACAUAAUGGAAAAUAGCCCCUAAAAAUUUCAAUAUAGUUUACAUAAAGACAAACAUGCCAUCAGUUACUGGGAUGCUGUGAGCCAACAGAGGAUUGAGCAUCA ; what binding signal value has been reported?
2.11
